Origin of the recorded values: PubChem BioAssay AID652042

Test: CEM21 lymphoblast cell cytotoxicity, dose response, cytotoxicity control for viral fusion inhibitor project, CellTiter-Glo luminescence, cherry-picked (AID 652042)
Conditions: CEM21 cells viability, CellTiter-Glo ATP luminescence, 24 h; series mostly up to 35 µM
The campaign covered roughly 1,100 compounds. About 350 (32%) were called active. Not all results are given here. Measured potencies and affinities stand elsewhere.
measurement-label: activity change, negative = cytotoxicity

Examples from the recorded data:
The recorded activity change, negative = cytotoxicity for entry Cc1cccc(NC(=O)C2CCN(S(=O)(=O)c3ccc4c(c3)OCCCO4)CC2)n1 equals inactive

The recorded activity change, negative = cytotoxicity for entry COC(=O)c1c(C)oc(C)c1S(=O)(=O)NC(c1ccccc1)c1ccccc1 equals inactive

The recorded activity change, negative = cytotoxicity for entry O=C(NC1CCCCC1)C(c1ccc(Cl)cc1)N(C(=O)c1cnccn1)c1ccc2c(c1)OCO2 (centres undefined) equals inactive

The recorded activity change, negative = cytotoxicity for entry CC(=O)C1=C(C)N(Cc2ccc(Cl)cc2)C(=S)NC1c1cccc(Br)c1 (centres undefined) equals inactive

Further cases:
The recorded activity change, negative = cytotoxicity for entry Cc1ccc2nc(NC(=O)CCCC(=O)O)sc2c1 equals inactive

The recorded activity change, negative = cytotoxicity for entry CC(C)CCSc1nc(N)c(C#N)cc1C#N equals inactive

The recorded activity change, negative = cytotoxicity for entry CC1(C(=O)NCc2ccc3c(c2)OCO3)CCN1Cc1csc2ccccc12 (centres undefined) equals inactive

The recorded activity change, negative = cytotoxicity for entry CC1(Cc2ccc(Cl)cc2)C(=O)Nc2ccc(S(=O)(=O)NC3CCCCC3)cc21 (centres undefined) equals inactive

The recorded activity change, negative = cytotoxicity for entry CCOC(=O)c1c(C)[nH]c(C)c1C(=O)COC(=O)[C@@H](NC(=O)c1ccccc1OCC)C(C)C equals inactive

The recorded activity change, negative = cytotoxicity for entry CC(C)(C)N1C(=O)[C@H]2[C@@H](c3ccc(Br)cc3)N3C(=O)N(c4cccc(Cl)c4)C(=O)[C@@]3(C)[C@H]2C1=O equals inactive

The recorded activity change, negative = cytotoxicity for entry CCc1cccc(NC(=O)C2CCN(S(=O)(=O)c3ccc4c(c3)CC(C)N4C(C)=O)CC2)c1 (centres undefined) equals inactive

The recorded activity change, negative = cytotoxicity for entry CC[C@@]12C(=O)N(c3ccccc3)C(=O)N1[C@H](c1cccc(C)c1)[C@@H]1C(=O)N(Cc3ccccc3)C(=O)[C@@H]12 equals inactive

The recorded activity change, negative = cytotoxicity for entry O=C(O)C[C@@H]1C=C[C@@H](NC(=O)Nc2ccccc2)[C@H](CO)O1 equals inactive

The recorded activity change, negative = cytotoxicity for entry Cc1n[nH]c(C)c1S(=O)(=O)N(CC(=O)NC1CCCC1)c1ccc(C(C)C)cc1 equals inactive

The recorded activity change, negative = cytotoxicity for entry CCC1(c2ccccc2)NC(=O)N(CC(=O)Nc2cc(S(=O)(=O)N3CCCCC3)ccc2OC(C)C)C1=O (centres undefined) equals inactive

The recorded activity change, negative = cytotoxicity for entry COc1cc2c(c(OC)c1OC)[C@@]1(c3ccccc3)CCCC[C@H]1[C@@H]2NC(=O)C(F)(F)F equals inactive

The recorded activity change, negative = cytotoxicity for entry CCOc1ccc(N(CC(=O)NCCSCc2ccc(Cl)cc2)S(C)(=O)=O)cc1 equals inactive

The recorded activity change, negative = cytotoxicity for entry O=C(Nc1ccc(Cl)cn1)C1CCCN1S(=O)(=O)c1cccc2ccccc12 (centres undefined) equals inactive

The recorded activity change, negative = cytotoxicity for entry CNC[C@H]1Oc2c(NC(=O)Nc3cccc4ccccc34)cccc2C(=O)N([C@H](C)CO)C[C@H]1C equals inactive

---

Assay: CEM21 lymphoblast cell cytotoxicity, dose response, cytotoxicity control for viral fusion inhibitor project, CellTiter-Glo luminescence, cherry-picked (AID 652042)
Settings: CEM21 cells viability, CellTiter-Glo ATP luminescence, 24 h; series mostly up to 35 µM
In all, about 1,100 compounds went through this assay and about 350 (32%) were called active. Not all results are given here. Results with a measured potency or affinity are listed apart.
measurement-label: activity change, negative = cytotoxicity

Examples from the recorded data:
The recorded activity change, negative = cytotoxicity for entry COc1ccc(C(=O)NCCc2ccc(Cl)cc2)cc1S(=O)(=O)N1CCCCC1C (centres undefined) equals inactive

The recorded activity change, negative = cytotoxicity for entry CSc1ccc(CN(C)C(=O)c2cccc(S(=O)(=O)N3CCN(Cc4ccccc4)CC3)c2)cc1 equals inactive

The recorded activity change, negative = cytotoxicity for entry COc1ccc(NC(=O)C(=O)NCC2CCCN2S(=O)(=O)c2cccs2)cc1 (centres undefined) equals inactive

The recorded activity change, negative = cytotoxicity for entry C[C@@H]1CN([C@@H](C)CO)C(=O)c2cc(NC(=O)c3ccccc3)ccc2O[C@@H](C)CCCCO[C@H]1CN(C)Cc1ccc(C(=O)O)cc1 equals inactive

The recorded activity change, negative = cytotoxicity for entry O=C(C[C@H]1C[C@@H]2c3cc(NC(=O)C4CCC4)ccc3O[C@@H]2[C@@H](CO)O1)NCC(F)(F)F equals inactive

Further cases:
The recorded activity change, negative = cytotoxicity for entry COc1ccccc1Oc1ccc(S(=O)(=O)NCc2ccccn2)cc1 equals inactive

The recorded activity change, negative = cytotoxicity for entry CCc1cc2c(NCc3ccco3)ncnc2s1 equals inactive

The recorded activity change, negative = cytotoxicity for entry CC(OC(=O)c1ccc(NC(=O)CC#N)cc1)C(=O)NCCC1=CCCCC1 (centres undefined) equals inactive

The recorded activity change, negative = cytotoxicity for entry CCN(CC(=O)Nc1cc(Cl)ccc1C)C(=O)c1ccc(=O)n(Cc2ccccc2)n1 equals inactive

The recorded activity change, negative = cytotoxicity for entry O=C(C[C@H]1C=C[C@@H](NC(=O)Nc2ccccc2F)[C@@H](CO)O1)NCc1ccc(Cl)cc1 equals inactive

---

Test: CEM21 lymphoblast cell cytotoxicity, dose response, cytotoxicity control for viral fusion inhibitor project, CellTiter-Glo luminescence, cherry-picked (AID 652042)
Conditions: CEM21 cells viability, CellTiter-Glo ATP luminescence, 24 h; series mostly up to 35 µM
The campaign covered roughly 1,100 compounds. About 350 (32%) were called active. A selection follows. Measured potencies and affinities stand elsewhere.
measurement-label: activity change, negative = cytotoxicity

Examples from the recorded data:
The recorded activity change, negative = cytotoxicity for entry CCC(NS(=O)(=O)c1c(C)[nH]c(=O)[nH]c1=O)C12CC3CC(CC(C3)C1)C2 (stereo not drawn) equals inactive

The recorded activity change, negative = cytotoxicity for entry Cc1ccc(S(=O)(=O)N2CCC(=O)N(CCOCc3ccc(C(F)(F)F)cc3)CC2)cc1 equals inactive

The recorded activity change, negative = cytotoxicity for entry COc1ccc(NC(=O)Nc2ccc3c(c2)C(=O)N([C@H](C)CO)C[C@H](C)[C@H](CN(C)S(=O)(=O)c2ccc(OC)cc2)O3)cc1 equals inactive

The recorded activity change, negative = cytotoxicity for entry N#Cc1c(NCc2ccccc2)ccnc1NCc1cccnc1 equals inactive

Further cases:
The recorded activity change, negative = cytotoxicity for entry COc1ccc(NC(=O)Nc2ccc3c(c2)C(=O)N([C@H](C)CO)C[C@H](C)[C@H](CN(C)Cc2ccncc2)OCCCC[C@H](C)O3)cc1 equals inactive

The recorded activity change, negative = cytotoxicity for entry CC(C)(C)N1C(=O)[C@H]2[C@@H](c3ccc(Br)cc3)N3C(=O)N(c4ccccc4)C(=O)[C@@]3(C)[C@H]2C1=O equals inactive

The recorded activity change, negative = cytotoxicity for entry C[C@@H]1CN([C@@H](C)CO)S(=O)(=O)c2ccc(-c3cccc(F)c3)cc2O[C@@H]1CN(C)S(=O)(=O)c1ccc(F)cc1 equals inactive

The recorded activity change, negative = cytotoxicity for entry O=C(c1ccccc1F)N1CCN(Cc2cccc(Cl)c2)CC1 equals inactive

---

Test: CEM21 lymphoblast cell cytotoxicity, dose response, cytotoxicity control for viral fusion inhibitor project, CellTiter-Glo luminescence, cherry-picked (AID 652042)
Details: CEM21 cells viability, CellTiter-Glo ATP luminescence, 24 h; series mostly up to 35 µM
In all, about 1,100 compounds went through this assay and about 350 (32%) were called active. These entries were drawn from the full list. Results with a measured potency or affinity are listed apart.
measurement-label: activity change, negative = cytotoxicity

Examples from the recorded data:
The recorded activity change, negative = cytotoxicity for entry CC[C@@]12C(=O)N(c3ccc(C)cc3)C(=O)N1[C@H](c1ccc(Br)cc1)[C@@H]1C(=O)N(C(C)(C)C)C(=O)[C@@H]12 equals inactive

The recorded activity change, negative = cytotoxicity for entry COc1ccc(CCNC(=O)COC(=O)c2cccn2C)cc1 equals inactive

The recorded activity change, negative = cytotoxicity for entry CC(=O)C1=C(C)N(Cc2ccc(Br)cc2)C(=S)NC1c1cccc(Cl)c1 (stereo not given) equals inactive

The recorded activity change, negative = cytotoxicity for entry CC(=O)c1c(C)[nH]c(C(=O)OCCCCN2C(=O)c3ccccc3C2=O)c1C equals inactive

Further cases:
The recorded activity change, negative = cytotoxicity for entry COc1ccc(N(CC(=O)NCCSCc2ccc(Cl)cc2)S(C)(=O)=O)cc1Cl equals inactive
